tested on: sicklepod (Cassia obtusifolia, CASOB); assay: Pre-emerge greenhouse herbicide activity screening, phytotoxicity rating; type: in vivo; conditions: 250 g ai/ha, 14 days after application
// values below are reported CASOB phytotoxicity rating (0-100 scale)
Answer using only a numeral; do not append any unit.

Some molecules with known CASOB phytotoxicity rating (0-100 scale) results, for comparison:
* Cn1c(=S)n(C)c(=O)n(-c2cc(Oc3ccccc3N)c(Cl)cc2F)c1=O | 35
* Fc1cc(Cl)c(Oc2ncccn2)cc1-c1nn2c(c1Br)CCCC2 | 100
* Cn1c(C(F)(F)F)cc(=O)n(-c2cc(Oc3ccccc3C#N)c(Cl)cc2F)c1=S | 65
* Cn1c(=S)n(C)c(=O)n(-c2cc(Oc3ccccc3)c(Cl)cc2F)c1=O | 35
* Cn1c(C(F)(F)F)cc(=O)n(-c2cc(Oc3ncccn3)c(Cl)cc2F)c1=S | 100

Exam item: Give the measured CASOB phytotoxicity rating (0-100 scale) of Cn1c(C(F)(F)F)cc(=O)n(-c2cc(Oc3ccccc3)c(Cl)cc2F)c1=S .
Marked response: 99

Exam item: Which CASOB phytotoxicity rating (0-100 scale) reading was recorded for the molecule O=[N+]([O-])c1ccccc1Oc1cc(-c2nn3c(c2Cl)CCCC3)c(F)cc1Cl ?
Marked response: 75

Exam item: What value of CASOB phytotoxicity rating (0-100 scale) has been reported for the following molecule? Cn1c(C(F)(F)F)cc(=O)n(-c2cc(Oc3ccccc3O)c(C#N)cc2F)c1=S
Marked response: 85

Exam item: Tell me the measured CASOB phytotoxicity rating (0-100 scale) of Cn1c(=S)n(C)c(=O)n(-c2cc(Oc3ncccn3)c(Cl)cc2F)c1=O , please.
Marked response: 100

Exam item: Name the recorded CASOB phytotoxicity rating (0-100 scale) for COc1ccc(Oc2cc(-n3c(=O)cc(C(F)(F)F)n(C)c3=S)c(F)cc2C#N)cc1 .
Marked response: 100

Exam item: If you can, please state the reported CASOB phytotoxicity rating (0-100 scale) value of Cn1nc(-c2cc(Oc3ncccn3)c(Cl)cc2F)c(Cl)c1[S+]([O-])C(F)F (centres unmarked) .
Marked response: 90

Exam item: CASOB phytotoxicity rating (0-100 scale) for Cn1c(C(F)(F)F)cc(=O)n(-c2cc(Oc3ccccc3N)c(Cl)cc2F)c1=S ?
Marked response: 0

Exam item: Would you kindly share the measured CASOB phytotoxicity rating (0-100 scale) for N#Cc1c(-c2cc(Oc3ncccn3)c(Cl)cc2F)nn2c1CCCC2 ?
Marked response: 25

Exam item: Could you share which CASOB phytotoxicity rating (0-100 scale) value was measured for Cn1c(C(F)(F)F)cc(=O)n(-c2cc(Oc3ncccc3C(F)(F)F)c(Cl)cc2F)c1=S ?
Marked response: 85

Exam item: I am curious: what CASOB phytotoxicity rating (0-100 scale) value has been reported for Fc1cc(Cl)c(Oc2ncccn2)cc1-c1nn2c(c1Cl)CCCC2 ?
Marked response: 100

Exam item: Given the molecule COc1ccccc1Oc1cc(-n2c(=O)cc(C(F)(F)F)n(C)c2=S)c(F)cc1C#N , what is its reported CASOB phytotoxicity rating (0-100 scale)?
Marked response: 100

Exam item: Need CASOB phytotoxicity rating (0-100 scale), item Cn1c(C(F)(F)F)cc(=O)n(-c2cc(Oc3ccccc3[N+](=O)[O-])c(Cl)cc2F)c1=S
Marked response: 70

* * *

Tested on: soybean (Glycine max L., var. Pella 86, SOY)
Test: Post-emerge greenhouse screening, crop safety (phytotoxicity rating)
Format: in vivo
Conditions: 125 g ai/ha, 14 days after application
Experimental: A standard greenhouse herbicide activity screening system was used to evaluate the herbicidal efficacy and crop safety of these test compounds. […] At 14 days after application of the test materials, phytotoxicity ratings were recorded. […]
Returns: string. Value is condition met if measured SOY crop damage, phytotoxicity rating (0-100 scale) is below 20, and condition not met if it is greater than or equal to it.

Exam item: For this compound, is SOY crop damage, phytotoxicity rating (0-100 scale) lower than 20? Cn1c(=S)n(C)c(=O)n(-c2cc(Oc3ccccc3N)c(Cl)cc2F)c1=O [Compound 2-18]
Marked response: condition met

Exam item: # TODO verify SOY crop damage, phytotoxicity rating (0-100 scale) < 20 strictly for this compound: Cn1c(C(F)(F)F)cc(=O)n(-c2cc(Oc3ncccc3C(F)(F)F)c(Cl)cc2F)c1=S [Compound 1-15]
Marked response: condition met

Exam item: SOY crop damage, phytotoxicity rating (0-100 scale) strictly < 20 for this compound? COc1ccc(Oc2cc(-n3c(=O)cc(C(F)(F)F)n(C)c3=S)c(F)cc2C#N)cc1 [Compound 1-72]
Marked response: condition met

Exam item: Hello, is SOY crop damage, phytotoxicity rating (0-100 scale) of the following compound strictly smaller than 20? Cn1c(C(F)(F)F)cc(=O)n(-c2cc(Oc3ccccc3)c(Cl)cc2F)c1=S [Compound 1-47]
Marked response: condition met

Exam item: Answer whether the compound Fc1cc(Cl)c(Oc2ncccn2)cc1-c1nn2c(c1Cl)CCCC2 [Compound 6-1] has SOY crop damage, phytotoxicity rating (0-100 scale) strictly less than 20
Marked response: condition not met

* * *

Test system: upland rice (Oryza sp., var.Tebonnet, RICE)
Experiment: Post-emerge greenhouse screening, crop safety (phytotoxicity rating)
Type: in vivo
Conditions: 125 g ai/ha, 14 days after application
Method: A standard greenhouse herbicide activity screening system was used to evaluate the herbicidal efficacy and crop safety of these test compounds. […] At 14 days after application of the test materials, phytotoxicity ratings were recorded. […]
VALUE_KIND: RICE crop damage, phytotoxicity rating (0-100 scale)
Could you keep your reply to the number by itself?

The examples below pair each entry with its known result.
• Cn1c(C(F)(F)F)cc(=O)n(-c2cc(Oc3ccccc3C#N)c(Cl)cc2F)c1=S [Compound 1-66] = 0
• Cn1c(C(F)(F)F)cc(=O)n(-c2cc(Oc3ccccc3)c(Cl)cc2F)c1=S [Compound 1-47] = 0
• COc1ccc(Oc2cc(-n3c(=O)cc(C(F)(F)F)n(C)c3=S)c(F)cc2C#N)cc1 [Compound 1-72] = 0
• Cn1c(C(F)(F)F)cc(=O)n(-c2cc(Oc3ccccc3N)c(Cl)cc2F)c1=S [Compound 1-48] = 0

Exam item: Param item = COc1ccccc1Oc1cc(-n2c(=O)cc(C(F)(F)F)n(C)c2=S)c(F)cc1C#N [Compound 1-71] ; retrieve measured RICE crop damage, phytotoxicity rating (0-100 scale).
Marked response: 0

Exam item: Request the reported RICE crop damage, phytotoxicity rating (0-100 scale) associated with Cn1c(=S)n(C)c(=O)n(-c2cc(Oc3ncccn3)c(Cl)cc2F)c1=O [Compound 2-1]
Marked response: 15

Exam item: Which RICE crop damage, phytotoxicity rating (0-100 scale) is listed for Cn1c(C(F)(F)F)cc(=O)n(-c2cc(Oc3ccccc3O)c(C#N)cc2F)c1=S [Compound 1-70] ?
Marked response: 0

Exam item: Value lookup for RICE crop damage, phytotoxicity rating (0-100 scale); key = Cn1c(C(F)(F)F)cc(=O)n(-c2cc(Oc3ccccc3)c(C#N)cc2F)c1=S [Compound 1-69]
Marked response: 0

Exam item: I would be grateful if you could share the reported RICE crop damage, phytotoxicity rating (0-100 scale) for N#Cc1c(-c2cc(Oc3ncccn3)c(Cl)cc2F)nn2c1CCCC2 [Compound 6-17] .
Marked response: 80

Exam item: Quick one: RICE crop damage, phytotoxicity rating (0-100 scale) for Cn1c(C(F)(F)F)cc(=O)n(-c2cc(Oc3ccccc3[N+](=O)[O-])c(Cl)cc2F)c1=S [Compound 1-49] ?
Marked response: 0

Exam item: Please report the recorded RICE crop damage, phytotoxicity rating (0-100 scale) for Fc1cc(Cl)c(Oc2ncccn2)cc1-c1nn2c(c1Br)CCCC2 [Compound 6-2] .
Marked response: 95

Exam item: Using the record for Cn1c(=S)n(C)c(=O)n(-c2cc(Oc3ccccc3[N+](=O)[O-])c(Cl)cc2F)c1=O [Compound 2-17] , report its RICE crop damage, phytotoxicity rating (0-100 scale).
Marked response: 0

Exam item: Given Cn1nc(-c2cc(Oc3ncccn3)c(Cl)cc2F)c(=O)n(C)c1=S [Compound 4-1] , state its recorded RICE crop damage, phytotoxicity rating (0-100 scale).
Marked response: 0

Exam item: RICE crop damage, phytotoxicity rating (0-100 scale) for Cn1c(=S)n(C)c(=O)n(-c2cc(Oc3ccccc3)c(Cl)cc2F)c1=O [Compound 2-16] ?
Marked response: 0

Exam item: Data request, read-out RICE crop damage, phytotoxicity rating (0-100 scale), for Fc1cc(Cl)c(Oc2ncccn2)cc1-c1nn2c(c1Cl)CCCC2 [Compound 6-1]
Marked response: 90

Exam item: Sample Cn1c(C(F)(F)F)cc(=O)n(-c2cc(Oc3ncccn3)c(Cl)cc2F)c1=S [Compound 1-1] — what was its RICE crop damage, phytotoxicity rating (0-100 scale)?
Marked response: 100

Exam item: Quick one: RICE crop damage, phytotoxicity rating (0-100 scale) of Cn1nc(-c2cc(Oc3ncccn3)c(Cl)cc2F)c(Cl)c1[S+]([O-])C(F)F (centres unmarked) [Compound 5-1] ?
Marked response: 50

Exam item: GET /values?readout=RICE crop damage, phytotoxicity rating (0-100 scale)&item= Cn1c(C(F)(F)F)cc(=O)n(-c2cc(Oc3ncccc3C(F)(F)F)c(Cl)cc2F)c1=S [Compound 1-15]
Marked response: 0

Exam item: Requested field: RICE crop damage, phytotoxicity rating (0-100 scale). Item: Cn1c(C(F)(F)F)cc(=O)n(-c2cc(Oc3ncccc3[N+](=O)[O-])c(Cl)cc2F)c1=S [Compound 1-9]
Marked response: 0

Exam item: Which RICE crop damage, phytotoxicity rating (0-100 scale) is reported for this compound? Cn1c(=S)n(C)c(=O)n(-c2cc(Oc3ccccc3N)c(Cl)cc2F)c1=O [Compound 2-18]
Marked response: 0
